Experiment: Pharmacokinetics after oral administration in mice
Assay type: in vivo, ICR mice
Conditions: ICR, mouse, PO 3 mg/kg, plasma
Description: Mice were fasted with water ad libitum for at least 12 h before oral administration with enavogliflozin. […] Concentrations of enavogliflozin in plasma and tissue homogenate samples were analyzed using an Agilent 6430 triple quadrupole liquid chromatography-mass spectrometry (LC–MS/MS) system (Agilent, Wilmington, DE, USA) following a previously published method. The data were expressed as the means ± standard deviation for the groups. […]
value-type: Cmax (ng/mL)
Field format: number, assumed ng/mL, no unit text.

Prompt: Looking for the measured Cmax of OC[C@H]1O[C@@H](c2cc(Cc3ccc(C4CC4)cc3)c(Cl)c3c2CCO3)[C@H](O)[C@@H](O)[C@@H]1O [enavogliflozin] , can you help?
Completion: 943

----------
Assay: Pharmacokinetics after oral administration in rats
Assay type: in vivo, Sprague Dawley (SD) rats
Details: Sprague-Dawley, rat, PO 0.3 mg/kg, plasma
value-type: Cmax (µg/mL)
Field format: number, assumed µg/mL, no unit text.

Prompt: Looking for the measured Cmax of OC[C@H]1O[C@@H](c2cc(Cc3ccc(C4CC4)cc3)c(Cl)c3c2CCO3)[C@H](O)[C@@H](O)[C@@H]1O , can you help?
Completion: 0.0513

----------
Experiment: Pharmacokinetics after intravenous injection in rats
Format: in vivo, Sprague Dawley (SD) rats
Details: Sprague Dawley, rat, plasma, IV 1 mg/kg, incomplete elimination phase
Method: Twelve rats were randomly divided into three groups (n = 4 per each group) and injected with an enavogliflozin solution at doses of 0.3, 1, and 3 mg/kg. […] Concentrations of enavogliflozin in plasma and tissue homogenate samples were analyzed using an Agilent 6430 triple quadrupole liquid chromatography-mass spectrometry (LC–MS/MS) system (Agilent, Wilmington, DE, USA) following a previously published method. The data were expressed as the means ± standard deviation for the groups. […]
value-type: MRT (h)
Field format: number, assumed h, no unit text.

Prompt: Looking for the measured MRT of OC[C@H]1O[C@@H](c2cc(Cc3ccc(C4CC4)cc3)c(Cl)c3c2CCO3)[C@H](O)[C@@H](O)[C@@H]1O , can you help?
Completion: 2.9

----------
Assay: Pharmacokinetics after intravenous injection in rats
Assay type: in vivo, Sprague Dawley (SD) rats
Settings: Sprague-Dawley, rat, IV 1 mg/kg, plasma
value-type: AUC(0-inf) (ng·h/mL)
Field format: number, assumed ng·h/mL, no unit text.

Prompt: Looking for the measured AUC(0-inf) of OC[C@H]1O[C@@H](c2cc(Cc3ccc(C4CC4)cc3)c(Cl)c3c2CCO3)[C@H](O)[C@@H](O)[C@@H]1O , can you help?
Completion: 2800

----------
Assay: Tissue distribution after single or repeated oral administration (7 or 14 days) in mice
Format: in vivo, ICR mice
Details: ICR, mouse, plasma, po, 1 mg/kg, repeated dose for 14 days, plasma, read-out: AUC48 h
Procedure: Thirty-five ICR mice were randomly divided into five groups (n = 7 per sampling time point) and administered with an enavogliflozin solution (1 mg/kg, once daily) for 14 days via oral gavage. […] Concentrations of enavogliflozin in plasma and tissue homogenate samples were analyzed using an Agilent 6430 triple quadrupole liquid chromatography-mass spectrometry (LC–MS/MS) system (Agilent, Wilmington, DE, USA) following a previously published method. […]
value-type: AUC(0-t)
# do not omit the unit; it follows the number

Prompt: Looking for the measured AUC(0-t) of OC[C@H]1O[C@@H](c2cc(Cc3ccc(C4CC4)cc3)c(Cl)c3c2CCO3)[C@H](O)[C@@H](O)[C@@H]1O [enavogliflozin] , can you help?
Completion: 2360 ng·h/mL

----------
Test: Pharmacokinetics after oral administration in mice
Format: in vivo, ICR mice
Conditions: ICR, mouse, plasma, PO 3 mg/kg
value-type: MRT (h)
Field format: number, assumed h, no unit text.

Prompt: Looking for the measured MRT of OC[C@H]1O[C@@H](c2cc(Cc3ccc(C4CC4)cc3)c(Cl)c3c2CCO3)[C@H](O)[C@@H](O)[C@@H]1O [enavogliflozin] , can you help?
Completion: 5.3

----------
Test: Pharmacokinetics after oral administration in rats
Type: in vivo, Sprague Dawley (SD) rats
Conditions: Sprague-Dawley, rat, plasma, po, 3 mg/kg, range over doses 0.3, 1 and 3 mg/kg, read-out: Oral bioavailability
value-type: bioavailability

Prompt: Looking for the measured bioavailability of OC[C@H]1O[C@@H](c2cc(Cc3ccc(C4CC4)cc3)c(Cl)c3c2CCO3)[C@H](O)[C@@H](O)[C@@H]1O [enavogliflozin] , can you help?
Completion: 56.3 to 62.1%

----------
Test: Pharmacokinetics after oral administration in rats
Format: in vivo, Sprague Dawley (SD) rats
Conditions: Sprague-Dawley, rat, plasma, PO 1 mg/kg
value-type: Tmax (h)
Field format: number, assumed h, no unit text.

Prompt: Looking for the measured Tmax of OC[C@H]1O[C@@H](c2cc(Cc3ccc(C4CC4)cc3)c(Cl)c3c2CCO3)[C@H](O)[C@@H](O)[C@@H]1O [enavogliflozin] , can you help?
Completion: 2.5

----------
Experiment: Pharmacokinetics after intravenous injection in rats
Format: in vivo, Sprague Dawley (SD) rats
Settings: Sprague-Dawley, rat, IV 0.3 mg/kg, plasma
value-type: AUC(0-t)
# do not omit the unit; it follows the number

Prompt: Looking for the measured AUC(0-t) of OC[C@H]1O[C@@H](c2cc(Cc3ccc(C4CC4)cc3)c(Cl)c3c2CCO3)[C@H](O)[C@@H](O)[C@@H]1O , can you help?
Completion: 784 ng·h/mL

----------
Experiment: Pharmacokinetics after oral administration in rats
Format: in vivo, Sprague Dawley (SD) rats
Details: Sprague-Dawley, rat, PO 3 mg/kg, plasma
value-type: AUC(0-inf) (ng·h/mL)
Field format: number, assumed ng·h/mL, no unit text.

Prompt: Looking for the measured AUC(0-inf) of OC[C@H]1O[C@@H](c2cc(Cc3ccc(C4CC4)cc3)c(Cl)c3c2CCO3)[C@H](O)[C@@H](O)[C@@H]1O , can you help?
Completion: 4160

----------
Assay: Pharmacokinetics after oral administration in mice
Assay type: in vivo, ICR mice
Conditions: ICR, mouse, plasma, PO 0.3 mg/kg
value-type: MRT (h)
Field format: number, assumed h, no unit text.

Prompt: Looking for the measured MRT of OC[C@H]1O[C@@H](c2cc(Cc3ccc(C4CC4)cc3)c(Cl)c3c2CCO3)[C@H](O)[C@@H](O)[C@@H]1O , can you help?
Completion: 5.7

----------
Experiment: Pharmacokinetics after intravenous injection in mice
Type: in vivo, ICR mice
Details: ICR, mouse, plasma, IV 0.3 mg/kg, read-out: CL
Method: Fifty-four ICR mice were randomly divided into nine groups (n = 6 per group; Table 1) and intravenously administered an enavogliflozin solution at doses of 0.3, 1, and 3 mg/kg. […] Concentrations of enavogliflozin in plasma and tissue homogenate samples were analyzed using an Agilent 6430 triple quadrupole liquid chromatography-mass spectrometry (LC–MS/MS) system (Agilent, Wilmington, DE, USA) following a previously published method. […]
value-type: clearance (mL/min/kg)
Field format: number, assumed mL/min/kg, no unit text.

Prompt: Looking for the measured clearance of OC[C@H]1O[C@@H](c2cc(Cc3ccc(C4CC4)cc3)c(Cl)c3c2CCO3)[C@H](O)[C@@H](O)[C@@H]1O , can you help?
Completion: 9.8

----------
Test: Tissue distribution after single or repeated oral administration (7 or 14 days) in mice
Format: in vivo, ICR mice
Conditions: ICR, mouse, kidney, po, 1 mg/kg, repeated dose for 14 days, kidney, read-out: AUC Ratio (AUC48 h, tissue / AUC48 h, plasma)
value-type: Kp
I'd appreciate a reply containing only the number, no unit.

Prompt: Looking for the measured Kp of OC[C@H]1O[C@@H](c2cc(Cc3ccc(C4CC4)cc3)c(Cl)c3c2CCO3)[C@H](O)[C@@H](O)[C@@H]1O [enavogliflozin] , can you help?
Completion: 38.4

----------
Assay: Pharmacokinetics after intravenous injection in rats
Assay type: in vivo, Sprague Dawley (SD) rats
Conditions: Sprague Dawley, rat, plasma, IV 3 mg/kg, incomplete elimination phase
value-type: MRT
# do not omit the unit; it follows the number

Prompt: Looking for the measured MRT of OC[C@H]1O[C@@H](c2cc(Cc3ccc(C4CC4)cc3)c(Cl)c3c2CCO3)[C@H](O)[C@@H](O)[C@@H]1O [enavogliflozin] , can you help?
Completion: 5.1 h

----------
Test: Tissue distribution after single or repeated oral administration (7 or 14 days) in mice
Format: in vivo, ICR mice
Details: ICR, mouse, liver, po, 1 mg/kg, repeated dose for 14 days, liver, read-out: AUC Ratio (AUC48 h, tissue / AUC48 h, plasma)
Procedure: Thirty-five ICR mice were randomly divided into five groups (n = 7 per sampling time point) and administered with an enavogliflozin solution (1 mg/kg, once daily) for 14 days via oral gavage. […] Concentrations of enavogliflozin in plasma and tissue homogenate samples were analyzed using an Agilent 6430 triple quadrupole liquid chromatography-mass spectrometry (LC–MS/MS) system (Agilent, Wilmington, DE, USA) following a previously published method. […]
value-type: Kp

Prompt: Looking for the measured Kp of OC[C@H]1O[C@@H](c2cc(Cc3ccc(C4CC4)cc3)c(Cl)c3c2CCO3)[C@H](O)[C@@H](O)[C@@H]1O , can you help?
Completion: 4.37
